Test: yeast display, Sf9 membrane polyspecificity reagent, FACS + sequencing; frameworks hold sequencing errors
MEASURED_ENDPOINT: polyreactivity (PSR sort gate)

1) QVQLVESGGGLVQAGGSLRLSCAASGITFALNAMGWYRQAPGKERELVAAIRWGGDSTYYADSVKGRFTISRDNAKNTVYLQMNSLKPEDTAVYYCAAYGPRTLDYWGQGTQVTVSS    high polyreactivity
2) QEQQQESGGGLVQAGGSQRLSCAASGYIFYFQYMGWYRQAPGKEREFVAAISDGANTNYADSVKGRFTISRDNAINTEYLQMNSLKPEDTAVYYCAVYADENYYYIYWGQGTQVTVSS    low polyreactivity
3) QVQLGESGGGIVQAGGSLRLSCAASGIIFYPYTMGWYRQAPGKERELVAAINSGGSTYYADSVKGRFTISRDNAKNTVYLQMNSLKPEDTAVYYCAAEEALDWYDDWIVSYDYWGQGTQVTVSS    low polyreactivity
4) QVQLVESGGGLVQAGGSLRLSCAASGRILAYYAMGWYRQAPGKERELVAAITSGGRTYYADSVKGRFTISRDNAKNTVYLQMNSLKPEDTAVYYCNAVYGYWYGSWGQGTQVTVSS    high polyreactivity
5) QVQLVESGGGLVQAGGSLRLSCAASGSIFTFYAMGWYRQAPGKERELVAAISWSGGSTYYADSVKGRFTISRDNAKNTVYLQMNSLKPEDTAVYYCAARYYVYSSRAQYHHYDYWGQGTQVTVSS    high polyreactivity
6) QVQLVESGGGLVQAGGSLRLSCAASGRTFYGYAMGWYRQAPGKERELVAAISVSGGSTYYADSVKGRFTISRDNAKNTVYLQMNSLKPEDTAVYYCATKGLFTNSPLYVSAYDYWGQGTQVTVSS    low polyreactivity
7) QVQLVESGGGLVQAGGSLRLSCAASGRIFGSNPMGWYRQAPGKERELVAAISSGGSTSYADSVKGRFTISRDNAKKTVYLQMNSLKPEDTAVYYCAADRFAFYGRYRGPYYYWGQGTQVTVSS    high polyreactivity
8) QVQLVESGGGLVQAGGSLRLSCAASGSTFWTYTMGWYRQAPGKERELVAVISSTGGDTYYADSVKGRFTISRDNAKNTVYLQMNSLKPEDTAVYYCAARIRRWYAGYGGYYWGQGTQVTVSS    high polyreactivity
9) QVQLVESGGGLVQAGGILRLSCDASGSIFVYNAMGWYRQAPGKERELVAGITFIGGSTYYADSVKGRFTISRDNAKNTVYLQMNSLKPEDTAVYYCNADVAPGIFYGYDSWGQGTQVTVSS    low polyreactivity
10) QVQLVESGGGLVQAGGILRLSCAASGRTFNSYAMGWYRQAPGKERELVAAISWIGGSTYYADSVKGRFTISRDNAKNTVYLQMNSLKPEDTAVYYCAADSYRFYSGYYYWGQGTQVTVSS    low polyreactivity
11) QVQLVESGGGLVQAGGSLRLSCAASGRIFSAYAMGWYRQAPGKERELVAVISRRGGRTYYADSVKGRFTISRDNAKNTVYLQMNSLKPEDTAVYYCAALGRRTRLYYWGQGTQVTVSS    high polyreactivity

---

Assay: yeast display, Sf9 membrane polyspecificity reagent, FACS + sequencing; frameworks hold sequencing errors
MEASURED_ENDPOINT: polyreactivity (PSR sort gate)

1. QFQLVESGGGLVQAGGSLRLSCAASGSIFGGYAMGWYRQAPGKERELVAAISYRGASTYYADSVKGRFTISRDNAKNTVYLLMNSLKPEDTAVYYCAVAARTRARFLYGYDYWGQGTQVTVSS    low polyreactivity
2. QVQLVEAGGGLVQAGGSLRLSGAASGFTLYANAMGWYRQAPGKERELVADISVSGSSTAYADSVKGRFTISRDNAKNTVYLQMNSLKPEDTAVYYCNADQGTRDSDYWGQGTQVTVSS    low polyreactivity
3. QVQLEESGGGLVQAGGSLRLSCAASGSIFRYYAMGWYRQAPGKERELVAVITRGGSTYYADSVKGRFTISRDNAKNTVYLQMNSLKPEDTAVYYCAADYWPAGLDRGYWGQGTQVTVSS    low polyreactivity

The reported numbers originate from the nanobody polyreactivity screen of Harvey et al. (2022).
